# credit: patent US10308602B2

- Tested on: Hep G2 cells (liver)
- Procedure summary: Cytotoxicity, WST-1 cell viability test, Hep G2
- Type: cell-based
- Assay setup: Homo sapiens, HepG2, after 96 hours of treatment, read-out: Concentration decreasing by 50% the cell viability
Parameter: pIC50
Please treat pIC50 as minus the base-10 logarithm of the molar concentration.

What does the data say about its pIC50? Entry: CCCCCCCCCCCC(=O)OC(C[Se]C)C(=O)O (stereo not shown) 3.58

---

- Test system: PANC-1 cells (pancreas)
- Procedure summary: Cytotoxicity, WST-1 cell viability test, PANC-1
- Type: cell-based
- Assay setup: Homo sapiens, after 96 hours of treatment, read-out: Concentration decreasing by 50% the cell viability
Parameter: pIC50
Friendly reminder that pIC50 comes from taking -log10 of the concentration in mol/L.

Recorded pIC50 of CCCCCCCCCCCC(=O)OC(C[Se]C)C(=O)O (stereo not shown) [Compound 38] , please. 3.60
